# TEST_TARGET: KCNK18 (Rattus norvegicus)
# Sequence (Q6Q1P3 1-405): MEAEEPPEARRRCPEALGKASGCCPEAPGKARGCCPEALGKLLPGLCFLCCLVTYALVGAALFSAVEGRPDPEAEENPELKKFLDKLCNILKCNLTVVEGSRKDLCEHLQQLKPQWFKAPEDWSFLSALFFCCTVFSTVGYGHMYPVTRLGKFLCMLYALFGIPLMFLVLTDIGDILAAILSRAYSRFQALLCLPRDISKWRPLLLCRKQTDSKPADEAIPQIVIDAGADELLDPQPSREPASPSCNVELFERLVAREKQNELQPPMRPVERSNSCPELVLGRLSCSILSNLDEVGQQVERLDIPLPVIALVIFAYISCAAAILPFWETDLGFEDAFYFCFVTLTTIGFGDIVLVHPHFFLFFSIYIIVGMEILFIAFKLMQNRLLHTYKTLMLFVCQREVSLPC
# PROTOCOL: whole-cell patch clamp of transfected HEK293 cells, dose-response; loss of effect on F375 swap and F167A
REPORTED_PROPERTY: pIC50
# pIC50: negative log10 of molar concentration; output just the value

Return the recorded pIC50 value; entry: CC(C)(O)[C@H]1O[C@H]2CC[C@@]3(C)[C@@](O)(CC[C@H]4Cc5c([nH]c6ccccc56)[C@@]43C)C2=CC1=O [PAX, Paxilline]
5.38
